Listed here: items and their measured IC50.
# TARGET OR TEST SYSTEM: IGFR kinase (Homo sapiens, UniProt P08069)
# Construct: purchased Millipore
# Sequence (P08069 31-1367): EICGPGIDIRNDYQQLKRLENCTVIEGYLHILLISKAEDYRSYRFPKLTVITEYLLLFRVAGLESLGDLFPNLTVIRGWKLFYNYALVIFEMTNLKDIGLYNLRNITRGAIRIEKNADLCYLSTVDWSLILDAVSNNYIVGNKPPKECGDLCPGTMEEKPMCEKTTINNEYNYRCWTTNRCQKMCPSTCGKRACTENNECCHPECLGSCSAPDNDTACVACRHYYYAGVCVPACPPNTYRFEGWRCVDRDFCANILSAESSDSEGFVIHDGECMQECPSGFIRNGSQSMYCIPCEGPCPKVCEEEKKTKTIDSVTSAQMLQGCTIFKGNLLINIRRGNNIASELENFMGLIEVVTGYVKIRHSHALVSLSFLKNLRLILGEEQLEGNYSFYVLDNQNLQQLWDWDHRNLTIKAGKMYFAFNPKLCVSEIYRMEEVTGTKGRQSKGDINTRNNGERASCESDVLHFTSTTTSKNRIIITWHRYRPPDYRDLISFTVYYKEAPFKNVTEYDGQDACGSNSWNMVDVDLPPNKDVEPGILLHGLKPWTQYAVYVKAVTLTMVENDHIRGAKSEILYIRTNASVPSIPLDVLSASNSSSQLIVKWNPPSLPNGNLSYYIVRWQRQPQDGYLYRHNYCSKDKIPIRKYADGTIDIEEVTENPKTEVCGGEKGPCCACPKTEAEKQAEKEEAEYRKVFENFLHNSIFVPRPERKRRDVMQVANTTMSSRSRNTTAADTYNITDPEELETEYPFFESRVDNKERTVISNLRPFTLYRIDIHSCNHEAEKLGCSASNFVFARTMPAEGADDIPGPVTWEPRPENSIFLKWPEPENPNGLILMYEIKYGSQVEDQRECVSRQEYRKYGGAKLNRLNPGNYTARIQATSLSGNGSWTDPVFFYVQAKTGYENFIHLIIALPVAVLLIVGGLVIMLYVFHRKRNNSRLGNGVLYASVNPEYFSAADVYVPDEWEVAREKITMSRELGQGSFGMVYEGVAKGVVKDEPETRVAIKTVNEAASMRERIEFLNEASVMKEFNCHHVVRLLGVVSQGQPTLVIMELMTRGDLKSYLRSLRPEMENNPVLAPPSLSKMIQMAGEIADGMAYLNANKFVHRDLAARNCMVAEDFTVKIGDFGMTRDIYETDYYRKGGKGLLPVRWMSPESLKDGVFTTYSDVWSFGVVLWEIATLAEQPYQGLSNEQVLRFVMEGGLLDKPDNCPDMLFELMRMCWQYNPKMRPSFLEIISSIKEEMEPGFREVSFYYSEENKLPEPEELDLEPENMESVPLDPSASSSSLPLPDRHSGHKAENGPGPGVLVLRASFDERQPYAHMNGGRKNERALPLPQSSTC
# PROTOCOL DESCRIPTION: Enzyme assay (c), IGFR kinase, Caliper LabChip
# Format: biochemical
# PARTICULARS: 30 nM IGFR kinase, 6 uM ATP, 3 uM peptide mix; read-out: IGFR IC50
Please state the figure in nM; there is no need to write the unit.

# example entries with known answers
- COc1cc(O[C@H]2CCN(C(C)=O)C2)ccc1Nc1ncc(Cl)c(-c2cnc3ccccn23)n1: 20
- COc1cc(C(CO)CO)ccc1Nc1ncc(Cl)c(-c2cnn3ccccc23)n1: 17

Pending molecule:
Ask: Param item = COc1cc(O[C@@H]2CCN(C(C)=O)C2)ccc1Nc1ncc(Cl)c(-c2cnc3ccccn23)n1 ; retrieve measured IC50.
Reply: 20

Where do these numbers come from? They come from patent US20100105655A1.
